# reported target mRNA inhibition; entries follow
- assayed.system: APOL1
- run.parameters: ASO, A431, 2 µM
After the bases stand the sugars from the 5' end (letter, count) and the backbone: PS all phosphorothioate, else s phosphorothioate and o phosphodiester by linkage. Methylation of C is not given here. e = 2'-O-(2-methoxyethyl) (MOE); k = constrained ethyl (cEt); d = 2'-deoxy (DNA)
Kindly provide the numeric value in % only, without the unit symbol.

GTTCTAACTCTTGGGC (sugars kkdddddkekeddddd, PS): 84
CGTCAATATATTCTTT (sugars kkkddddkdkdkdddd, PS): 95
GAATTATGGAATTGCA (sugars kkddddekekeddddd, PS): 95

Next, consider the following sequence.
Problem: Read the entry GTGTTATATTTGATCC (sugars k3 d4 k3 e1 d5, PS) and write its reported target mRNA inhibition.
Result: 94

====

- assayed.system: KRAS
- run.parameters: ASO, A431, 2 µM
After the bases stand the sugars from the 5' end (letter, count) and the backbone: PS all phosphorothioate, else s phosphorothioate and o phosphodiester by linkage. Methylation of C is not given here. e = 2'-O-(2-methoxyethyl) (MOE); k = constrained ethyl (cEt); d = 2'-deoxy (DNA)
readout.name: target mRNA inhibition (%)
Lab book: enter the figure in %, no units written.

These recorded examples may help you get a feel for the data.
TATGCAATGTTAATTT (sugars k3 d10 k3, PS): 8
ATTACTTATGCAGAGA (sugars k3 d10 k3, PS): 60
TTAGGGGAATTACAAG (sugars k3 d10 k3, PS): 23

Problem: Name the recorded target mRNA inhibition of the item TTAGTGATTAGGTCAA (sugars kkkdddddddddkeke, PS) in your answer.
Result: 32

Problem: Specify target mRNA inhibition for TAGTTTCCATTGCCTT (sugars k3 d10 k3, PS) and stop.
Result: 16

Problem: State its target mRNA inhibition for this sequence: TTAGTGATTAGGTCAA (sugars kddddddddddkekek, PS)
Result: 12

Problem: Consider the sequence GTCCAGTGATACTTTC (sugars kdddddddddkekeke, PS) . State its measured target mRNA inhibition.
Result: 20

Problem: Read the entry CTATTCATACCAGGTT (sugars k3 d10 k3, PS) and write its reported target mRNA inhibition.
Result: 33

Problem: Tell me target mRNA inhibition reported for CAGTGTGACTCAGTTA (sugars kkddddddddkekekk, PS)
Result: 63

Problem: In one line, give reported target mRNA inhibition of the entry TCTGTCTATTCATACC (sugars k3 d10 k3, PS) .
Result: 12

Problem: Look up and state reported target mRNA inhibition for TGGTGTAACATAGGTT (sugars kkdddddddddkekek, PS)
Result: 62

Problem: Supply measured target mRNA inhibition of TAGTTTCACATAGCAA (sugars k3 d10 k3, PS) in your reply.
Result: 51

====

- assayed.system: KRAS
- run.parameters: ASO, A431, 2 µM
After the bases stand the sugars from the 5' end (letter, count) and the backbone: PS all phosphorothioate, else s phosphorothioate and o phosphodiester by linkage. Methylation of C is not given here. k = constrained ethyl (cEt); d = 2'-deoxy (DNA)
# target mRNA inhibition listing for each entry below
Please reply with the bare figure in % and do not write the unit itself.

For orientation, consider the following solved cases.
GCAAGATGACACTAAT (sugars k3 d10 k3, PS): 30
ATTTCTGATGTGACTC (sugars k3 d10 k3, PS): 49
GGTGAATATCTTCAAA (sugars k3 d10 k3, PS): 28

// switching to the query sequence
Problem: Supply reported target mRNA inhibition belonging to this sequence: CATTGCTAGTTCAAAA (sugars k3 d10 k3, PS)
Result: 9

====

- assayed.system: DGAT2
- run.parameters: ASO, HepG2, 0.12 µM
After the bases stand the sugars from the 5' end (letter, count) and the backbone: PS all phosphorothioate, else s phosphorothioate and o phosphodiester by linkage. Methylation of C is not given here. e = 2'-O-(2-methoxyethyl) (MOE); d = 2'-deoxy (DNA)
Kindly return YES if reported target mRNA inhibition is no lower than 70%; return NO if it is lower.

Answered cases to consult:
GATGGCACTGCAGGCCACTC (sugars e5 d10 e5, PS): NO
GGACCCACTGGAGCACTGAG (sugars e3 d14 e3, PS): YES
GGTAAGGCCGTATGCCTGGG (sugars e2 d13 e5, PS): NO
CATTGCCACTCCCATTCTTT (sugars e2 d13 e5, PS): NO
CACTGGAGCACTGAGATGAC (sugars e3 d14 e3, PS): NO

Problem: Reported target mRNA inhibition at or above 70%? CAGTTTCGGACCCACTGTGA (sugars e2 d13 e5, PS)
Result: YES

Problem: Does target mRNA inhibition meet or surpass 70% for CTGGTCCAGGGAGAGACCAA (sugars e5 d10 e5, PS) ?
Result: NO

Problem: Does target mRNA inhibition meet or surpass 70% for GACAGGACCCACTGGAGCAC (sugars e3 d14 e3, PS) ?
Result: NO

====

- assayed.system: ANGPTL2
- run.parameters: ASO, 5 µM
After the bases stand the sugars from the 5' end (letter, count) and the backbone: PS all phosphorothioate, else s phosphorothioate and o phosphodiester by linkage. Methylation of C is not given here. l = locked nucleic acid (LNA); d = 2'-deoxy (DNA)
Rule: target mRNA inhibition of 40% or more gives label 1; anything lower gives label 0.

// below: answered sequences
GAATTTTCTTTACCTTAG (sugars l4 d11 l3, PS): label 1
AAGCTGTTGAAATGTATG (sugars l3 d11 l4, PS): label 1
TGATGTGGTGAGACAGTA (sugars l2 d14 l2, PS): label 1
CTAGGCACTCAATCCCA (sugars l1 d14 l2, PS): label 0
TTCTCCTAGAAAGCAGT (sugars l1 d12 l4, PS): label 1
GAGTTTGGATCATAGAA (sugars l4 d10 l3, PS): label 1
GCTTGCGGATGATCTC (sugars l2 d12 l2, PS): label 0
ACTTCTATTCTTGGACC (sugars l2 d13 l2, PS): label 1
GTGCCAAATCCTAGACA (sugars l2 d13 l2, PS): label 1
CCTGGTAAAATCTTACA (sugars l3 d11 l3, PS): label 0

Now consider a different sequence.
Problem: Hi team, for ACATGTATATTATGAAGGTA (sugars l4 d14 l2, PS) , is the recorded target mRNA inhibition at or above 40%?
Result: label 0

====

- assayed.system: DGAT2
- run.parameters: ASO, HepG2, 2.5 µM
After the bases stand the sugars from the 5' end (letter, count) and the backbone: PS all phosphorothioate, else s phosphorothioate and o phosphodiester by linkage. Methylation of C is not given here. e = 2'-O-(2-methoxyethyl) (MOE); d = 2'-deoxy (DNA)
// target mRNA inhibition lookup, one value per entry
Numbers only here, please. The scale is %.

Before answering, review these 5 worked examples.
GTGATTATTCTAAAACTCAA (sugars e5 d10 e5, PS): 34
ATCCCAACTCTGCCATTTAA (sugars e5 d10 e5, PS): 60
GTGCAGCCTACAAGAGCCTG (sugars e5 d10 e5, PS): 67
GGACCCACTGGAGCACTGAG (sugars e3 d14 e3, PS): 29
GGGTCATTTTGGAGACCACA (sugars e5 d10 e5, PS): 59

Problem: Recall and state the measured target mRNA inhibition for GGCAGATAACCACAGCGATA (sugars e5 d10 e5, PS) .
Result: 75

Problem: For the sequence AGGCATGCTTCCTCCCACTT (sugars e5 d10 e5, PS) , report target mRNA inhibition.
Result: 53

====

// reported target mRNA inhibition for each item listed
- assayed.system: IRF5
- run.parameters: ASO, KARPAS-229, 4 µM
After the bases stand the sugars from the 5' end (letter, count) and the backbone: PS all phosphorothioate, else s phosphorothioate and o phosphodiester by linkage. Methylation of C is not given here. e = 2'-O-(2-methoxyethyl) (MOE); k = constrained ethyl (cEt); d = 2'-deoxy (DNA)
State just the number; it will be interpreted in %.

GTGTATTTCCCTGTCT (sugars kkdddddddddkekek, PS): 0
CATTCTATGCCTTTTA (sugars kdddddddddkekeke, PS): 13

Problem: Give target mRNA inhibition; test system IRF5; sequence GCTTGGTCTTGACCTC (sugars kkkdddddddddkeke, PS)
Result: 35

====

- assayed.system: ANGPTL2
- run.parameters: ASO, 25 µM
After the bases stand the sugars from the 5' end (letter, count) and the backbone: PS all phosphorothioate, else s phosphorothioate and o phosphodiester by linkage. Methylation of C is not given here. l = locked nucleic acid (LNA); d = 2'-deoxy (DNA)
Threshold rule: target mRNA inhibition greater than or equal to 60% is fulfilled; below that, not fulfilled.

Problem: Form field: target mRNA inhibition at least 60%? Entry: TGATGTGGTGAGACAGTA (sugars l2 d14 l2, PS)
Result: fulfilled

Problem: Determine whether this sequence has target mRNA inhibition no lower than 60%: TTACATGCCGCCAGAGGAA (sugars l1 d16 l2, PS)
Result: not fulfilled

Problem: Test whether the sequence CCAACCATAAATTAATTG (sugars l4 d10 l4, PS) records target mRNA inhibition of 60% or higher.
Result: fulfilled

Problem: Does the sequence ACATGTATATTATGAAGGTA (sugars l4 d14 l2, PS) have recorded target mRNA inhibition that is 60% or more?
Result: not fulfilled

Problem: Does GATGATGCGGTTGTAGG (sugars l2 d13 l2, PS) have a reported target mRNA inhibition of at least 60%?
Result: fulfilled

Problem: Is it the case that CATCTAAGGAATGTGGT (sugars l4 d11 l2, PS) has target mRNA inhibition reaching or exceeding 60%?
Result: fulfilled

Problem: Record TTCTGGTAGTGGGCACAG (sugars l1 d15 l2, PS) ; criterion: target mRNA inhibition no lower than 60%. Met?
Result: not fulfilled

Problem: Assess whether reported target mRNA inhibition for CAAGAGGGAGGGGAGGACA (sugars l1 d16 l2, PS) sits at 60% or higher.
Result: not fulfilled

Problem: Form field: target mRNA inhibition at least 60%? Entry: TGGTTGATGATGCGGTT (sugars l2 d13 l2, PS)
Result: fulfilled

Problem: Does TCAGTGGTGAGATGGGTCAC (sugars l1 d17 l2, PS) have a reported target mRNA inhibition of at least 60%?
Result: not fulfilled

Problem: Hello, I need to know if ACTAAATGAACTTCCACA (sugars l4 d11 l3, PS) has measured target mRNA inhibition not below 60%. Thanks!
Result: fulfilled

Problem: Reported target mRNA inhibition at or above 60%? GAATTTTCTTTACCTTAG (sugars l4 d11 l3, PS)
Result: not fulfilled

Problem: Decide: is the reported value of target mRNA inhibition for GTGCTCTGTGAAGATTA (sugars l2 d11 l4, PS) equal to or greater than 60%?
Result: fulfilled

Problem: Say whether ACCATTTTGAGATTCCC (sugars l2 d13 l2, PS) shows target mRNA inhibition of 60% or more.
Result: not fulfilled

Problem: Decide: target mRNA inhibition of TTCTCCTAGAAAGCAGT (sugars l1 d12 l4, PS) >= 60%?
Result: fulfilled

Problem: # check: target mRNA inhibition of AAGCATCATTGAAAATTC (sugars l4 d10 l4, PS) is greater than or equal to 60%
Result: fulfilled

Problem: Textbook exercise: given the entry TGATGATGCGGTTGTA (sugars l3 d11 l2, PS) , state whether its target mRNA inhibition is greater than or equal to 60%.
Result: fulfilled

Problem: Quick check: does CTAGGCACTCAATCCCA (sugars l1 d14 l2, PS) have target mRNA inhibition greater than or equal to 60%?
Result: not fulfilled

Problem: Form field: target mRNA inhibition at least 60%? Entry: CCATTTTGAGATTCCCC (sugars l1 d14 l2, PS)
Result: not fulfilled

Problem: Hi, just wondering whether TCTCCTAAGAGCAAAGCT (sugars l2 d14 l2, PS) shows target mRNA inhibition of 60% or higher.
Result: not fulfilled

Problem: Please indicate if the recorded target mRNA inhibition for TGAATGGAAGATACAAAACT (sugars l4 d12 l4, PS) meets or exceeds 60%.
Result: not fulfilled

Problem: Record TGATGATGCGGTTGTAGGT (sugars l1 d16 l2, PS) ; criterion: target mRNA inhibition no lower than 60%. Met?
Result: fulfilled

Sourced from the OligoGym collection
